# Tested on: pAKT in T47D (PI3Kα H1047R mutant) cells
# Assay Protocol: Inhibition of pAKT (alphaLISA Surefire Ultra AKT 1/2/3 pS473) in T47D cells
# Format: cell-based
# Condition Set: Homo sapiens; T47D (PI3Kα H1047R mutant) cells, 24 hr compound incubation, alphaLISA pS473; read-out: T47D (H1047R) pAKT 24 hr (IC50)
Measurement Type: IC50 (nM)
Numbers only, in nM.

CO[C@H]1CCCN(c2nc3c([C@@H](C)Nc4ccc(Cl)nc4C(=O)O)cc(C)cc3nc2C#N)C1 [Example 196A]
1.2
Cc1cc([C@@H](C)Nc2ccccc2C(=O)O)c2nc(N3CCC4(CC3)C(F)(F)C4(F)F)c(C#N)nc2c1
18.8
Cc1cc([C@@H](C)Nc2ccc(Cl)nc2C(=O)O)c2nc(N3CC(C(F)(F)F)C3)c(C#N)nc2c1
2.2
C[C@@H](Nc1ccccc1C(=O)O)c1cc(Cl)cc2nc(C#N)c(N3CCC(F)(F)CC3)nc12
4.7
Cc1cc([C@@H](C)Nc2ccc(Cl)nc2C(=O)O)c2nc(NCC3(F)CC3)c(C#N)nc2c1
0.7
COC[C@]1(F)CCN(c2nc3c([C@@H](C)Nc4ccc(Cl)nc4C(=O)O)cc(C)cc3nc2C#N)C1 (single isomer, unassigned)
5.6
C[C@@H](Nc1ccc(Cl)nc1C(=O)O)c1cc(Cl)cc2nc(C#N)c(N3CC4(COC4)C3)nc12
1.4
Cc1cc([C@@H](C)Nc2ccc(Cl)nc2C(=O)O)c2nc(N3C[C@@H](C)OC[C@H]3C)c(C#N)nc2c1 [Example 237A]
4.3
Cc1cc([C@@H](C)Nc2ccc(Cl)nc2C(=O)O)c2nc(N3CC4CC[C@@]4(F)C3)c(C#N)nc2c1 (single isomer, unassigned) [Example 244A]
1.2
Cc1cc([C@@H](C)Nc2ccccc2C(=O)O)c2nc(N3CCC(C)(C)CC3)c(C#N)nc2c1
38.6

Look at each compound and report its IC50.
1. Cc1cc([C@@H](C)Nc2ccc(Cl)nc2C(=O)O)c2nc(N3CCN(c4ncc(C)s4)CC3)c(C#N)nc2c1
2. CO[C@H](C)C1CCN(c2nc3c([C@@H](C)Nc4ccc(Cl)nc4C(=O)O)cc(C)cc3nc2C#N)CC1 (single isomer, unassigned) [Example 195A]
3. Cc1cc([C@@H](C)Nc2ccccc2C(=O)O)c2nc(N3CC4(CCO4)C3)c(C#N)nc2c1
4. CC(=O)N(C)C1CCN(c2nc3c([C@@H](C)Nc4ccc(Cl)nc4C(=O)O)cc(C)cc3nc2C#N)CC1

1: 1; 2: 0.47; 3: 10.9; 4: 1.3

----------
# Test system: pAKT in T47D (PI3Kα H1047R mutant) cells
# Assay Protocol: Inhibition of pAKT (alphaLISA Surefire Ultra AKT 1/2/3 pS473) in T47D cells
# Type: cell-based
# Condition Set: Homo sapiens; T47D (PI3Kα H1047R mutant) cells, 24 hr compound incubation, alphaLISA pS473; read-out: T47D (H1047R) pAKT 24 hr (IC50)
Measurement Type: pIC50
Give bare numbers, as −log10 of the molar value.

Cc1cc([C@@H](C)Nc2ccc(Cl)nc2C(=O)O)c2nc(N3C[C@@H](C)OC[C@@H]3C)c(C#N)nc2c1 [Example 238B]
8.46
Cc1cc([C@@H](C)Nc2ccc(Cl)nc2C(=O)O)c2nc(N3CC[C@@H](F)C3)c(C#N)nc2c1
9.30
C[C@H](Nc1ccccc1C(=O)O)c1cc(C#N)cc2nc(C#N)c(N3CCC(F)(F)CC3)nc12
5.94

Look at each compound and report its pIC50.
1. Cc1cc([C@@H](C)Nc2ccc(Cl)nc2C(=O)O)c2nc(-c3ccc(=O)n(C)c3)c(C#N)nc2c1
2. COC[C@@H]1[C@H]2CN(c3nc4c([C@@H](C)Nc5ccc(Cl)nc5C(=O)O)cc(C)cc4nc3C#N)C[C@@H]12
3. Cc1cc([C@@H](C)Nc2ccc(Cl)nc2C(=O)O)c2nc(N3CC(F)(F)C4(CC4)C3)c(C#N)nc2c1
4. C[C@@H](Nc1ccccc1C(=O)O)c1cc(C#N)cc2nc(C#N)c(N3CCC(F)(F)CC3)nc12
5. CC(=O)N1CCN(c2nc3c([C@@H](C)Nc4ccc(Cl)nc4C(=O)O)cc(C)cc3nc2C#N)CC1
6. C[C@@H](Nc1ccccc1C(=O)O)c1cc(C2CC2)cc2nc(C#N)c(N3CCC(F)(F)CC3)nc12

1. 7.70
2. 8.92
3. 7.82
4. 7.32
5. 8.34
6. 7.02

----------
# Tested on: pAKT in T47D (PI3Kα H1047R mutant) cells
# Assay Protocol: Inhibition of pAKT (alphaLISA Surefire Ultra AKT 1/2/3 pS473) in T47D cells
# Type: cell-based
# Condition Set: Homo sapiens; T47D (PI3Kα H1047R mutant) cells, 24 hr compound incubation, alphaLISA pS473; read-out: T47D (H1047R) pAKT 24 hr (IC50)
Measurement Type: pIC50
Answers are plain numbers, as −log10 of the molar value.

Cc1cc([C@@H](C)Nc2ccc(Cl)nc2C(=O)O)c2nc(N3CCO[C@H]4C[C@H]43)c(C#N)nc2c1 (single isomer, unassigned) [Example 239B]
9.40

Look at each compound and report its pIC50.
1. Cc1cc([C@@H](C)Nc2ccc(Cl)nc2C(=O)O)c2nc(N3CCC(F)(F)[C@H](CO)C3)c(C#N)nc2c1 (single isomer, unassigned) [Example 234B]
2. C[C@@H](Nc1ccc(Cl)nc1C(=O)O)c1cc(Cl)cc2nc(C#N)c(N3CCC(F)(F)CC3)nc12

[8.44, 8.21]

Look at each compound and report its pIC50.
1. Cc1cc([C@@H](C)Nc2ccc(Cl)nc2C(=O)O)c2nc(NCCC(=O)N(C)C)c(C#N)nc2c1
2. Cc1cc([C@@H](C)Nc2ccc(Cl)nc2C(=O)O)c2nc(N3CCC[C@H]([C@@H](C)O)C3)c(C#N)nc2c1 [Example 261B]
3. Cc1cc([C@@H](C)Nc2ccc(Cl)nc2C(=O)O)c2nc(N3C[C@@H](CO)C(F)(F)C3)c(C#N)nc2c1 (single isomer, unassigned) [Example 210B]
4. Cc1cc([C@@H](C)Nc2ccccc2C(=O)O)c2nc(N3CCCC3)c(C#N)nc2c1

[8.57, 8.59, 9.10, 7.61]

----------
# Tested on: pAKT in T47D (PI3Kα H1047R mutant) cells
# Assay Protocol: Inhibition of pAKT (alphaLISA Surefire Ultra AKT 1/2/3 pS473) in T47D cells
# Assay type: cell-based
# Condition Set: Homo sapiens; T47D (PI3Kα H1047R mutant) cells, 24 hr compound incubation, alphaLISA pS473; read-out: T47D (H1047R) pAKT 24 hr (IC50)
Please go through the items and note down their pIC50.
Give bare numbers, as −log10 of the molar value.

Solved entries (count: 6):
Cc1cc([C@@H](C)Nc2ccc(Cl)nc2C(=O)O)c2nc(-n3ccnc3)c(C#N)nc2c1
7.18
Cc1cc([C@@H](C)Nc2ccc(Cl)nc2C(=O)O)c2nc(N3CCC4(CC4)C(F)(F)C3)c(C#N)nc2c1
8.72
Cc1cc([C@@H](C)Nc2ccc(Cl)nc2C(=O)O)c2nc(N(C)CCC(=O)N(C)C)c(C#N)nc2c1
7.96
Cc1cc([C@@H](C)Nc2ccc(Cl)nc2C(=O)O)c2nc(N3CCCC(F)(F)CC3)c(C#N)nc2c1
8.74
Cc1cc([C@@H](C)Nc2ccc(Cl)nc2C(=O)O)c2nc(N3CC(C)(C)C(F)(F)C3)c(C#N)nc2c1
7.18
Cc1cc([C@@H](C)Nc2ccc(Cl)nc2C(=O)O)c2nc(N3CCc4ccncc4C3)c(C#N)nc2c1
8.80

Now examine the next entry.
Query (compound): Cc1cc([C@@H](C)Nc2ccc(Cl)nc2C(=O)O)c2nc(N3CCc4ccc(C#N)cc4C3)c(C#N)nc2c1 ; field requested: pIC50
9.16

----------
Please go through the items and note down their IC50.
# System: pAKT in T47D (PI3Kα H1047R mutant) cells
# Assay Protocol: Inhibition of pAKT (alphaLISA Surefire Ultra AKT 1/2/3 pS473) in T47D cells
# Type: cell-based
# Condition Set: Homo sapiens; T47D (PI3Kα H1047R mutant) cells, 24 hr compound incubation, alphaLISA pS473; read-out: T47D (H1047R) pAKT 24 hr (IC50)
Give bare numbers, in nM.

Cc1cc([C@@H](C)Nc2ccc(Cl)nc2C(=O)O)c2nc(NCC3COC3)c(C#N)nc2c1 [Example 135]
19.2
CO[C@@H]1CCCN(c2nc3c([C@@H](C)Nc4ccc(Cl)nc4C(=O)O)cc(C)cc3nc2C#N)C1 [Example 196B]
2.2
Cc1cc([C@@H](C)Nc2ccc(Cl)nc2C(=O)O)c2nc(N3CCCC3)c(C#N)nc2c1 [Example 69]
2.1

Look at each compound and report its IC50.
1. Cc1cc([C@@H](C)Nc2ccc(Cl)nc2C(=O)O)c2nc(N3CC4CC(C3)C4(F)F)c(C#N)nc2c1 [Example 7]
2. Cc1cc([C@@H](C)Nc2ccc(Cl)nc2C(=O)O)c2nc(N3CCC(F)(F)C3)c(C#N)nc2c1 [Example 70]
3. Cc1cc([C@@H](C)Nc2ccccc2C(=O)O)c2nc(N3CC(F)(F)C3)c(C#N)nc2c1 [Example 127]
4. Cc1cc([C@@H](C)Nc2ccc(Cl)nc2C(=O)O)c2nc(N3C[C@@H]4C[C@H]3CC4(F)F)c(C#N)nc2c1 (single isomer, unassigned) [Example 8]

1: 0.8; 2: 2.6; 3: 8.4; 4: 7.7
